Tested on: OVCAR-3 ovarian
procedure.details: NCI tumour cell line growth inhibition, 48 h
quantity.kind: TGI (µM)
Give your result in µM as a bare value.

# count of solved cases: 2
C=C(C[N+](C)(C)C)N/N=C/c1oc(-c2ccc(OC)c(OC)c2)c(-c2ccc(OC)c(OC)c2)c1[N+](=O)[O-] :: 71.6
COc1cccc(C2CC(=O)Nc3cc4c(cc32)CCC4)c1OC (stereo not given) :: 5.9

Switching to the query record.
Task: Give the reported value of TGI for this record: COc1ccc2c(c1)-c1nc(=S)n(CCN(C)C)c3ccc([N+](=O)[O-])c(c13)N2
Output: 19.3

---

Test system: HOP-18 NSCLC
procedure.details: NCI tumour cell line growth inhibition, 48 h
Item-by-item account of TGI

COc1ccc2[nH]c3c(C)c4cc[n+](COC(=O)c5ccccc5)cc4c(C)c3c2c1 :: 0.312 µM
C1=CC=C2NCCSCCNC3=CC=CC=CC3=NCCSCCN=C2C=C1 :: > 100 µM

Task: Give measured TGI for O=C1Cc2ccccc2CCc2ccccc21 (HOP-18 NSCLC).
Output: > 100 µM

Task: GET TGI where system = HOP-18 NSCLC and item = C(/C=C/N1CCCC1)=C\c1nc(N2CCCC2)c2ccccc2n1
Output: 30.3 µM

Task: Report measured TGI on HOP-18 NSCLC; entry: C=CCN(N=O)C(=O)ON1C(=O)CCC1=O
Output: > 100 µM

Task: GET TGI | system: HOP-18 NSCLC | item: OCCN(CCO)c1ncnc2c1sc(=S)n2-c1ccccc1
Output: > 100 µM

Task: Look up HOP-18 NSCLC data: TGI of O=C1c2c(O)ccc(O)c2C(=O)c2c(NCCNCCO)ccc(NCCNCCO)c21 , then report it.
Output: 1.67 µM

Task: Fill in: TGI on HOP-18 NSCLC, entry O=c1/c(=C/c2ccc3c(c2)OCO3)sc2nnc(Cc3ccccc3)n12
Output: > 100 µM

Task: Give TGI only, for CC1(C)Oc2ccccc2N2O[C@@H]3C(=O)N(c4ccccc4)C(=O)[C@@H]3C21c1ccccc1 (some centres not stated) , using HOP-18 NSCLC data.
Output: 49.1 µM

Task: Retrieve TGI on HOP-18 NSCLC; query CCCCOP1(=O)C=CC(Cl)=C(C)C1 (configuration not stated)
Output: > 100 µM

Task: Enter recorded TGI with HOP-18 NSCLC for Nc1nc(Cl)cc(NCCCCCCNc2cc(Cl)nc(N)n2)n1 here.
Output: > 100 µM

Task: State measured TGI of the compound CC(C)(C)c1cc(C(=O)O)c(C(c2ccccc2)c2ccccc2C(=O)O)c(C(=O)O)c1 (configuration not stated) with HOP-18 NSCLC.
Output: > 100 µM

---

System: SR leukemia
procedure.details: NCI tumour cell line growth inhibition, 48 h; in the data active means GI50 below about 0.43 µM; inactive means the rest
Pick from T = active, F = inactive when you respond.

For orientation, consider the following solved cases.
CCOc1cccc(/C=N/NC(=O)Cc2ccc(Nc3ccnc(C(F)(F)F)c3)cc2)c1O :: T
COc1ccc(-c2nn(-c3cccc(Cl)c3)cc2-c2cc(-c3cccs3)no2)cc1 :: F
O=C(Nc1cccc(Cl)c1)c1cc(Cl)ccc1O :: F
COc1cccc(C2CC(=O)Nc3cc4c(cc32)CCC4)c1OC (stereo not drawn) :: F

Continue with the molecule presented below.
Task: What is the recorded call for this molecule in the test? COc1ccc(-c2nn(-c3cccc(Cl)c3)cc2/C=C2\C(=N)N(c3ccccc3)N=C2N)cc1
Output: F
